# credit: patent US20110200615A1

Tested System: Botulinum neurotoxin type B, subtype B4 (BoNT/B4) (Clostridium botulinum)
Assay Explanation: flow cytometry; yeast-displayed scFv, soluble toxin
Quantity Kind: Kd (pM)
State just the number; it will be interpreted in pM.

Consider 2B24 scFv (yeast displayed) (scFv) scFv: QVQLVESGGGVVQPGRSLRLSCAASGLTFSVYGMHWVRQAPGKGLEWVAVISHTGSEEYYADSVKGRFSISRDNSNNTLFLQMNSLRPEDTAVYYCVKDGPMAAIPFYYFDFWGQGTLVTVSSGGGGSGGGGSGGGGSQSVVTQPPSVSAAPGQKVTISCSGSSSNIGNNYVSWYQQLPGTAPKLLIYDNNKRPSGIPDRFSGSKSGTSATLGITGLQTGDEADYYCGTWDSSLSAGVFGGGTKLTVLG . Its measured Kd is 720

Kd measured on 1B18 scFv (yeast displayed) (scFv) scFv: EVQLVQSGGGLVQPGGSRRLSCAASGFYFNAYWMTWVRQAPGKGLEWVANINLDGTEIYYLDSVKGRFTVSRDNVKNSVFLQMSSLRVEDTAVYFCARLEWGGRNGWVSPWGQGTLVTVSSGGGGSGGGGSGGGGSDVVMTQSPSSVSASVGDRVTITCRASQSISSYLNWYQQRPGKAPKLLIFAASSLQSAVPSRFSGSGSGTDFTLTISSLQPEDFATYYCQQSYSTPPTFGQGTKVEIKR = 1700

Value of Kd reported for the binder 2B23 scFv (yeast displayed) (scFv) scFv: EVQLLESGGGLVQPGGSLRLSCAASGFTFSNYPMSWVRQAPGKGLAWVSSLTASGDNTFYADSVKGRFTISRDNSNNTLYLQMHSLRAEDTAVYYCAKALVGRYDISTGYYRPVMDSWGQGTLVTVSSGGGGSGGGGSGGGGSDIQMTQSPPSLSASVGDRVTITCRTSQGFTSALAWYQQKPGEPPKLLIYDASKLESGVPSRFSGSGSGTNFALTISSLQPEDFATYFCQQSNSYPLTFGGGTKVEIKR is 190
